# Test system: Mycobacterium tuberculosis
# assay-info: Antimycobacterial activity against multidrug-resistant Mycobacterium tuberculosis assessed as growth inhibition at 0.3125 to 5 ug/mL by resazurin assay
# Format: functional
property-label: MIC (µg/mL)

smiles-notation | inequality-operator | result
O=[N+]([O-])c1ccc(OCc2nc3cc(Br)ccc3n2S(=O)(=O)c2cc(F)ccc2F)cc1 | = | 6.25
Cc1c(F)cccc1S(=O)(=O)n1c(COc2ccc([N+](=O)[O-])cc2)nc2ccc(Br)cc21 | > | 50
O=[N+]([O-])c1ccc(OCc2nc3cc(Br)ccc3n2S(=O)(=O)c2ccccc2[N+](=O)[O-])cc1 | = | 6.25
COc1ccc(OC)c(S(=O)(=O)n2c(COc3ccc([N+](=O)[O-])cc3)nc3cc(Br)ccc32)c1 | > | 50
COc1ccc(S(=O)(=O)n2c(COc3ccc([N+](=O)[O-])cc3)nc3ccc(Br)cc32)c(OC)c1 | = | 2.5
O=[N+]([O-])c1ccc(OCc2nc3cc(Br)ccc3n2S(=O)(=O)c2ccccc2Cl)cc1 | = | 6.25
O=[N+]([O-])c1ccc(OCc2nc3cc(Br)ccc3n2S(=O)(=O)c2ccc(Cl)cc2Cl)cc1 | > | 50
COc1ccc(S(=O)(=O)n2c(COc3ccc([N+](=O)[O-])cc3)nc3cc(Br)ccc32)c(OC)c1 | > | 50
NNC(=O)c1ccncc1 | = | 12.5

---

# Test system: Mycobacterium tuberculosis
# assay-info: Antimycobacterial activity against multidrug-resistant Mycobacterium tuberculosis assessed as growth inhibition at 0.3125 to 5 ug/mL by resazurin assay
# Format: functional
property-label: MIC

compound | result
O=[N+]([O-])c1ccc(OCc2nc3ccc(Br)cc3n2S(=O)(=O)c2ccccc2[N+](=O)[O-])cc1 | > 50 µg/mL
Cc1c(F)cccc1S(=O)(=O)n1c(COc2ccc([N+](=O)[O-])cc2)nc2cc(Br)ccc21 | > 50 µg/mL
N#Cc1cccc(S(=O)(=O)n2c(COc3ccc([N+](=O)[O-])cc3)nc3cc(Br)ccc32)c1 | > 50 µg/mL
O=[N+]([O-])c1ccc(OCc2nc3cc(Br)ccc3n2S(=O)(=O)c2cc(Cl)ccc2Cl)cc1 | > 50 µg/mL
Cc1cccc(S(=O)(=O)n2c(COc3ccc([N+](=O)[O-])cc3)nc3ccc(Br)cc32)c1 | > 50 µg/mL
Cc1cccc(S(=O)(=O)n2c(COc3ccc([N+](=O)[O-])cc3)nc3cc(Br)ccc32)c1 | > 50 µg/mL
N#Cc1cccc(S(=O)(=O)n2c(COc3ccc([N+](=O)[O-])cc3)nc3ccc(Br)cc32)c1 | > 50 µg/mL
Nc1ccc(OCc2nc3cc(Br)ccc3[nH]2)cc1 | 25 µg/mL
COc1ccc(OC)c(S(=O)(=O)n2c(COc3ccc([N+](=O)[O-])cc3)nc3ccc(Br)cc32)c1 | 25 µg/mL
O=[N+]([O-])c1ccc(OCc2nc3ccc(Br)cc3n2S(=O)(=O)c2cc(Cl)ccc2Cl)cc1 | > 50 µg/mL
O=[N+]([O-])c1ccc(OCc2nc3ccc(Br)cc3n2S(=O)(=O)c2cc(F)ccc2F)cc1 | > 50 µg/mL
CO[C@H]1/C=C/O[C@@]2(C)Oc3c(C)c(O)c4c(O)c(c(/C=N/N5CCN(C)CC5)c(O)c4c3C2=O)NC(=O)/C(C)=C\C=C\[C@H](C)[C@H](O)[C@@H](C)[C@@H](O)[C@@H](C)[C@H](OC(C)=O)[C@@H]1C [RIFAMPIN] | 25 µg/mL
